# Assay Protocol: Liver microsomal stability test, mouse
# Type: in vitro ADME
# Stated Conditions: Mouse liver microsomes, 0.5 mg/mL protein, 37° C., NADPH
Parameter Measured: CLint scaled

[[record]]
molecule = "Cc1cc(-c2ccccc2)c(C(=O)C(=O)Nc2ccc3c(c2)OCC2CN(c4ncc(C(F)(F)F)cn4)CCN32)n1C (centres unmarked)"
reported_result = "4.87 L/h/kg"

[[record]]
molecule = "Cc1cc(-c2ccccc2)c(C(=O)C(=O)Nc2ccc3c(c2)C[C@H]2CN(c4ncc(F)cn4)CCN32)n1C"
reported_result = "3.01 L/h/kg"

[[record]]
molecule = "Cc1cc(-c2ccccc2)c(C(=O)C(=O)Nc2ccc3c(c2)CC2CN(c4ncc(F)cn4)CCN32)n1C (centres unmarked)"
reported_result = "3.91 L/h/kg"

[[record]]
molecule = "Cc1cc(-c2ccccc2)c(C(=O)C(=O)Nc2ccc3c(c2)CCC2CN(c4ncc(F)cn4)CCN32)n1C (centres unmarked)"
reported_result = "5.39 L/h/kg"

[[record]]
molecule = "Cc1cc(-c2ccccc2)c(C(=O)C(=O)Nc2ccc(N3CCN(c4ncc(F)cn4)CC3)cc2)n1C [Example F901318, reference compound]"
reported_result = "5.93 L/h/kg"

[[record]]
molecule = "Cc1cc(-c2ccccc2)c(C(=O)C(=O)Nc2cc(F)c3c(c2)OC[C@H]2CN(c4ncc(F)cn4)CCN32)n1C"
reported_result = "6.88 L/h/kg"

[[record]]
molecule = "Cc1cc(-c2ccccc2)c(C(=O)C(=O)Nc2ccc3c(c2)C[C@@H]2CN(c4ncc(F)cn4)CCN32)n1C"
reported_result = "2.75 L/h/kg"

[[record]]
molecule = "Cc1cc(-c2ccccc2)c(C(=O)C(=O)Nc2cc(F)c3c(c2)OCC2CN(c4ncc(F)cn4)CCN32)n1C (centres unmarked)"
reported_result = "6.86 L/h/kg"

